Provide the reported pKd of each item.
# TARGET_DESC: T1, native IHFNTHI (integration host factor of nontypeable Haemophilus influenzae) (nontypeable Haemophilus influenzae …, UniProt P43723 1-96; P43724 1-94)
# T1 construct: also called NTHI IHF
# T1 sequence 1: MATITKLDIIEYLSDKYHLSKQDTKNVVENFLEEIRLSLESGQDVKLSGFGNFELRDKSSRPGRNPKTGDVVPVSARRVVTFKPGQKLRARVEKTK
# T1 sequence 2: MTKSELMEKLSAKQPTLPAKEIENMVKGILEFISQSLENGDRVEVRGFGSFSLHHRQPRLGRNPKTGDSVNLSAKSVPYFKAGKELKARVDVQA
# MEASUREMENT_PROTOCOL: SPR Biacore 3000, IHFNTHI immobilized, HuMab as analyte
Numbers only, as −log10 of the molar value.

- humanized anti-tip monoclonal antibody, heavy chain SEQ ID NO: 1 and light chain SEQ ID NO: 8 (antibody, V domains shown, also called H10210 (1F8.F1 Humanized HC1) + L10211 (1F8.F1 Humanized LC2)) VH: EVKLVESGGGLVQPGGSLRLSCAASGFTFRTYAMSWVRQAPGKGLEWVATIGSDRRHTYYPDSVKGRFTISRDNAKNTLYLQMNSLRAEDTAVYYCVGPYDGYYGEFDYWGQGTLVTVSS VL: DVVMTQSPLSLPVTLGQPASISCRSSQSLLDSDGKTFLNWLQQRPGQSPRRLIYLVSKRDSGVPDRFSGSGSGTDFTLKISRVEAEDVGVYYCWQGTHFPYTFGQGTKLEIKR: 7.40
- humanized anti-tip monoclonal antibody, heavy chain SEQ ID NO: 2 and light chain SEQ ID NO: 9 (antibody, V domains shown, also called H10211 (1F8.F1 Humanized HC2) + L10212 (1F8.F1 Humanized LC3)) VH: EVQLVESGGGLVQPGGSLRLSCAASGFTFRTYAMSWVRQAPGKGLEWVATIGSDRRHTYYPDSVKGRFTISRDNSKNTLYLQMNSLRAEDTAVYYCVGPYDGYYGEFDYWGQGTLVTVSS VL: DVVMTQSPDSLAVSLGERATINCKSSQSLLDSDGKTFLNWLQQKPGQPPKRLIYLVSKLDSGVPDRFSGSGSGTDFTLTISSLQAEDVAVYYCWQGTHFPYTFGQGTKLEIKR: 6.90

Problem: Which pKd value belongs to humanized anti-tip monoclonal antibody, heavy chain SEQ ID NO: 3 and light chain SEQ ID NO: 8 (antibody, V domains shown, also called H10212 (1F8.F1 Humanized HC3) + L10211 (1F8.F1 Humanized LC2)) VH: EVKLVQSGAEVKKPGASVKVSCKASGFTFRTYAMSWVRQAPGQRLEWVATIGSDRRHTYYPDKFQGRVTITRDNAKNTLYMELSSLRSEDTAVYYCVGPYDGYYGEFDYWGQGTLVTVSS VL: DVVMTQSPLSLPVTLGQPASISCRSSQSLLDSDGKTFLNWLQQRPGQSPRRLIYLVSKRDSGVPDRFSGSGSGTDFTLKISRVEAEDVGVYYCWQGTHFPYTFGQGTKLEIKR ?
Result: 6.94

The reported measurements were obtained from patent US20210206841A1.
